- systemTested: T1, cSNK:BSA conjugate (bovine, head-to-tail cyclized; conjugated to BSA carrier)
- T1 construct: also called BSA-cSNK
- T1 sequence (P02769 25-607 limits assumed): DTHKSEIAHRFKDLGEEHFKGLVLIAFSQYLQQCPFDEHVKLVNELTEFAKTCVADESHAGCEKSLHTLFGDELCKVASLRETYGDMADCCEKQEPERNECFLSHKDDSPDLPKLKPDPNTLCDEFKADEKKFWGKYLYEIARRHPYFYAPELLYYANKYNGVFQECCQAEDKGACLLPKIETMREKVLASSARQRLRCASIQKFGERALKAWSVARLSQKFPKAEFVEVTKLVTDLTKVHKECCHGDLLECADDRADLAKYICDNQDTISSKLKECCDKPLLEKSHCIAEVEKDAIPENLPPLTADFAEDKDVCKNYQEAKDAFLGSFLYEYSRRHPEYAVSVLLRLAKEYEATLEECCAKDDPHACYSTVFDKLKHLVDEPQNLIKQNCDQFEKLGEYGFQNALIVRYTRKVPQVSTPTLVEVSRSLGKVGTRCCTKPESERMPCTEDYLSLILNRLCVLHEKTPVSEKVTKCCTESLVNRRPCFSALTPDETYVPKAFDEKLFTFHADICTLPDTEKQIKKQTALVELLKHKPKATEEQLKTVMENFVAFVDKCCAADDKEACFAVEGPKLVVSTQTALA
- assayText: BLI 2:1 fit, site 2 (KD2); 3.13 nM row
pKd: −log10 of the molar value.
endpointLabel: pKd

>  <binder>
hu5E3-IgG4 (antibody, V domains shown, human IgG4/kappa; also called humanized 5E3 IgG4) VH: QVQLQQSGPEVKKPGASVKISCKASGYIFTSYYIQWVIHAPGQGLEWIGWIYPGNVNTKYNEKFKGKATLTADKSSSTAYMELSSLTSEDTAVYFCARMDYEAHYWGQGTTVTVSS VL: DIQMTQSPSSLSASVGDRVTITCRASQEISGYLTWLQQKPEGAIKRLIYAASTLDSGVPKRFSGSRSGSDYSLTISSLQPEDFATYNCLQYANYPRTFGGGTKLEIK

>  <endpointLabel>
pKd

>  <reported>
8.52

$$$$
